- Tested on: SW 1271 complex tumor spheroid viability
- Assay Summary: Anticancer human tumor SW 1271 cell line growth inhibition;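 note: spheroids exposed to agents for seven days before readout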;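 for viability, T/C: percent of DMSO vehicle control luminescence so 100% = vehicle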
- Applied Conditions: second compound 94.9 pM; first compound 0.316 µM; stronger effect = lower value
In plain terms, low viability, T/C, meaning strictly below 40%, gives criterion met, and everything else gives criterion not met.

Sample answers from the record:
Data request: Record COc1cc(C)[nH]c(=O)c1CN1CCc2c(Cl)cc(C(OC)C3COC3)c(Cl)c2C1=O (stereo unspecified) + COc1cc2c(cc1O)CCNC21CSC2c3c(OC(C)=O)c(C)c4c(c3C(COC1=O)N1C(O)C3Cc5cc(C)c(OC)c(O)c5C(C21)N3C)OCO4 : is its viability, T/C strictly below 40%?
Data returned: criterion not met

Data request: Record [2H]c1nc(C)nc([2H])c1-c1cc(NC[C@@H](C)c2cccc3c(C(=O)NC)ccnc23)ncn1 + COc1cc2c(cc1O)CCNC21CSC2c3c(OC(C)=O)c(C)c4c(c3C(COC1=O)N1C(O)C3Cc5cc(C)c(OC)c(O)c5C(C21)N3C)OCO4 : is its viability, T/C strictly below 40%?
Data returned: criterion not met

Data request: Record CC(C)n1c(=O)n(C)c2cnc3cc(F)c(-c4ccc(OCCCN5CCCCC5)nc4)cc3c21 + COc1cc2c(cc1O)CCNC21CSC2c3c(OC(C)=O)c(C)c4c(c3C(COC1=O)N1C(O)C3Cc5cc(C)c(OC)c(O)c5C(C21)N3C)OCO4 : is its viability, T/C strictly below 40%?
Data returned: criterion met

Data request: Record Cc1cc(C)c(CNC(=O)c2cc(-c3ccc(CN4CCOCC4)cc3)cc3c2cnn3C2CCCC2)c(=O)[nH]1 + COc1cc2c(cc1O)CCNC21CSC2c3c(OC(C)=O)c(C)c4c(c3C(COC1=O)N1C(O)C3Cc5cc(C)c(OC)c(O)c5C(C21)N3C)OCO4 : is its viability, T/C strictly below 40%?
Data returned: criterion not met

Then there is this compound:
Data request: Record CC1COCCN1c1cc(-c2ccnn2C)c2ccnc(-c3ccn[nH]3)c2n1 (stereo unspecified) + COc1cc2c(cc1O)CCNC21CSC2c3c(OC(C)=O)c(C)c4c(c3C(COC1=O)N1C(O)C3Cc5cc(C)c(OC)c(O)c5C(C21)N3C)OCO4 : is its viability, T/C strictly below 40%?
Data returned: criterion met

---

- Tested on: SW 1271 complex tumor spheroid viability
- Assay Summary: Anticancer human tumor SW 1271 cell line growth inhibition; active = viability on the fitted dose curve at most 10% of control; inactive = the rest;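 note: spheroids exposed to agents for seven days before readout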
- Applied Conditions: second compound 3.16 µM; first compound 0.949 µM
Respond with a class label; see active, inactive

Data request: Fill in: this test's call for Cc1sc2c(c1C)C(c1ccc(Cl)cc1)=NC(CC(=O)Nc1ccc(O)cc1)c1nnc(C)n1-2 (centres undefined) + Cn1nnc2c(C(N)=O)ncn2c1=O is ___
Data returned: active

Data request: Fill in: this test's call for Cn1ncnc1[C@H]1c2n[nH]c(=O)c3cc(F)cc(c23)N[C@@H]1c1ccc(F)cc1 + Cn1nnc2c(C(N)=O)ncn2c1=O is ___
Data returned: inactive

Data request: Fill in: this test's call for CNCc1ccc(-c2cc(-c3nc(-c4ccc(S(=O)(=O)C(C)C)cc4)cnc3N)on2)cc1 + Cn1nnc2c(C(N)=O)ncn2c1=O is ___
Data returned: active

More entries:
Data request: Fill in: this test's call for O=C(c1cc(Cc2n[nH]c(=O)c3ccccc23)ccc1F)N1CCN(C(=O)C2CC2)CC1 + Cn1nnc2c(C(N)=O)ncn2c1=O is ___
Data returned: inactive

---

- Test system: SW 1271 complex tumor spheroid viability
- Assay Summary: Anticancer human tumor SW 1271 cell line growth inhibition; active = viability on the fitted dose curve at most 10% of control; inactive = the rest;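 note: spheroids exposed to agents for seven days before readout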
- Applied Conditions: second compound 0.003 µM; first compound 10 µM
Respond with a class label; see t = active, f = inactive

Sample answers from the record:
Data request: Fill in: this test's call for CC1COCCN1c1cc(-c2ccnn2C)c2ccnc(-c3ccn[nH]3)c2n1 (stereo not given) + CC[C@@]1(O)C(=O)OCc2c1cc1n(c2=O)Cc2cc3c(CN(C)C)c(O)ccc3nc2-1 is ___
Data returned: t

Data request: Fill in: this test's call for CC1COCCN1c1cc(-c2ccnn2C)c2ccnc(-c3ccn[nH]3)c2n1 (stereo not given) + COc1cc2c(cc1O)CCNC21CSC2c3c(OC(C)=O)c(C)c4c(c3C(COC1=O)N1C(O)C3Cc5cc(C)c(OC)c(O)c5C(C21)N3C)OCO4 is ___
Data returned: t

More entries:
Data request: Fill in: this test's call for Cc1cc(C)c(CNC(=O)c2cc(-c3ccc(CN4CCOCC4)cc3)cc3c2cnn3C2CCCC2)c(=O)[nH]1 + CC[C@@]1(O)C(=O)OCc2c1cc1n(c2=O)Cc2cc3c(CN(C)C)c(O)ccc3nc2-1 is ___
Data returned: f

Data request: Fill in: this test's call for COc1cc(C)[nH]c(=O)c1CN1CCc2c(Cl)cc(C(OC)C3COC3)c(Cl)c2C1=O (stereo not given) + CC[C@@]1(O)C(=O)OCc2c1cc1n(c2=O)Cc2cc3c(CN(C)C)c(O)ccc3nc2-1 is ___
Data returned: f

Data request: Fill in: this test's call for [2H]c1nc(C)nc([2H])c1-c1cc(NC[C@@H](C)c2cccc3c(C(=O)NC)ccnc23)ncn1 + COc1cc2c(cc1O)CCNC21CSC2c3c(OC(C)=O)c(C)c4c(c3C(COC1=O)N1C(O)C3Cc5cc(C)c(OC)c(O)c5C(C21)N3C)OCO4 is ___
Data returned: t

---

- System: SW 1271 complex tumor spheroid viability
- Assay Summary: Anticancer human tumor SW 1271 cell line growth inhibition;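 note: spheroids exposed to agents for seven days before readout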
- Applied Conditions: curve of first compound; second compound 3.16 µM
Readout Kind: IC50

Use the examples below as a reference point.
Data request: Indicate its recorded IC50; the compound in question is Cn1ncnc1[C@H]1c2n[nH]c(=O)c3cc(F)cc(c23)N[C@@H]1c1ccc(F)cc1 + Cn1nnc2c(C(N)=O)ncn2c1=O
Data returned: < 9.49 nM

Data request: Indicate its recorded IC50; the compound in question is O=C(c1cc(Cc2n[nH]c(=O)c3ccccc23)ccc1F)N1CCN(C(=O)C2CC2)CC1 + Cn1nnc2c(C(N)=O)ncn2c1=O
Data returned: 2110 nM

Then there is this compound:
Data request: Indicate its recorded IC50; the compound in question is CNCc1ccc(-c2cc(-c3nc(-c4ccc(S(=O)(=O)C(C)C)cc4)cnc3N)on2)cc1 + Cn1nnc2c(C(N)=O)ncn2c1=O
Data returned: 170 nM

---

- System: SW 1271 complex tumor spheroid viability
- Assay Summary: Anticancer human tumor SW 1271 cell line growth inhibition;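 note: spheroids exposed to agents for seven days before readout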
- Applied Conditions: curve of first compound; second compound 0.3 µM
- Protocol: Multicellular complex tumor spheroid response to DNA repair inhibitors in combination with DNA-damaging drugs This study explores the anticancer activities of DNA-damaging drugs and inhibitors of DNA damage repair, both as single agents and in combinations. […] Twenty-six patient-derived or established malignant cell lines were evaluated representing sarcoma, melanoma, small cell lung cancer (SCLC), non-small cell lung cancer (NSCLC), as well as bladder, ovarian and pancreatic cancers. […]
pIC50: −log10 of the molar value.
Overview of recorded pIC50 for various compounds

Data request: Lab note: SW 1271 complex tumor spheroid viability assay, enter pIC50 for CC(C)n1c(=O)n(C)c2cnc3cc(F)c(-c4ccc(OCCCN5CCCCC5)nc4)cc3c21 + CC[C@@]1(O)C(=O)OCc2c1cc1n(c2=O)Cc2cc3c(CN(C)C)c(O)ccc3nc2-1 here
Data returned: > 7.50

Data request: Lab note: SW 1271 complex tumor spheroid viability assay, enter pIC50 for COc1ccc([C@@H](O)c2cc(-c3ncnc4cc(N5CCOCC5)ccc34)c(F)cc2Cl)nn1 + CC[C@@]1(O)C(=O)OCc2c1cc1n(c2=O)Cc2cc3c(CN(C)C)c(O)ccc3nc2-1 here
Data returned: > 7.50

More entries:
Data request: Lab note: SW 1271 complex tumor spheroid viability assay, enter pIC50 for Cn1ncnc1[C@H]1c2n[nH]c(=O)c3cc(F)cc(c23)N[C@@H]1c1ccc(F)cc1 + CC[C@@]1(O)C(=O)OCc2c1cc1n(c2=O)Cc2cc3c(CN(C)C)c(O)ccc3nc2-1 here
Data returned: > 8.02

Data request: Lab note: SW 1271 complex tumor spheroid viability assay, enter pIC50 for Cc1sc2c(c1C)C(c1ccc(Cl)cc1)=NC(CC(=O)Nc1ccc(O)cc1)c1nnc(C)n1-2 (stereo not given) + CC[C@@]1(O)C(=O)OCc2c1cc1n(c2=O)Cc2cc3c(CN(C)C)c(O)ccc3nc2-1 here
Data returned: > 8.02

Data request: Lab note: SW 1271 complex tumor spheroid viability assay, enter pIC50 for CC1COCCN1c1cc(-c2ccnn2C)c2ccnc(-c3ccn[nH]3)c2n1 (stereo not given) + CC[C@@]1(O)C(=O)OCc2c1cc1n(c2=O)Cc2cc3c(CN(C)C)c(O)ccc3nc2-1 here
Data returned: > 7.50

Data request: Lab note: SW 1271 complex tumor spheroid viability assay, enter pIC50 for CNCc1ccc(-c2cc(-c3nc(-c4ccc(S(=O)(=O)C(C)C)cc4)cnc3N)on2)cc1 + CC[C@@]1(O)C(=O)OCc2c1cc1n(c2=O)Cc2cc3c(CN(C)C)c(O)ccc3nc2-1 here
Data returned: > 8.02

Data request: Lab note: SW 1271 complex tumor spheroid viability assay, enter pIC50 for Cc1cc(C)c(CNC(=O)c2cc(-c3ccc(CN4CCOCC4)cc3)cc3c2cnn3C2CCCC2)c(=O)[nH]1 + CC[C@@]1(O)C(=O)OCc2c1cc1n(c2=O)Cc2cc3c(CN(C)C)c(O)ccc3nc2-1 here
Data returned: > 7.50

Data request: Lab note: SW 1271 complex tumor spheroid viability assay, enter pIC50 for COc1cc(C)[nH]c(=O)c1CN1CCc2c(Cl)cc(C(OC)C3COC3)c(Cl)c2C1=O (stereo not given) + CC[C@@]1(O)C(=O)OCc2c1cc1n(c2=O)Cc2cc3c(CN(C)C)c(O)ccc3nc2-1 here
Data returned: > 7.50

Data request: Lab note: SW 1271 complex tumor spheroid viability assay, enter pIC50 for [2H]c1nc(C)nc([2H])c1-c1cc(NC[C@@H](C)c2cccc3c(C(=O)NC)ccnc23)ncn1 + CC[C@@]1(O)C(=O)OCc2c1cc1n(c2=O)Cc2cc3c(CN(C)C)c(O)ccc3nc2-1 here
Data returned: > 7.50

Data request: Lab note: SW 1271 complex tumor spheroid viability assay, enter pIC50 for O=C(c1cc(Cc2n[nH]c(=O)c3ccccc23)ccc1F)N1CCN(C(=O)C2CC2)CC1 + CC[C@@]1(O)C(=O)OCc2c1cc1n(c2=O)Cc2cc3c(CN(C)C)c(O)ccc3nc2-1 here
Data returned: > 7.02
